Data origin: ChEMBL document CHEMBL2034859

Provide the reported Activity of each item.
Tested on: Calu-1
Experiment: Cytotoxicity against human Calu1 cells at 10 uM after 48 hrs by WST-1 assay
Assay type: functional

Worked set:
CCOC(=O)CC(=O)c1cccc2sc(Br)nc12    19%
CCOC(=O)CC(=O)c1cnc(Cl)cn1    31%

Alright, here's another compound for you.
Incoming: Tell me the measured Activity of CCOC(=O)CC(=O)c1cccnc1 , please.
Outgoing: 30%

---

System: PANC-1
Test: Cytotoxicity against human PANC1 cells after 48 hrs by WST-1 assay
Assay type: functional, cell-based
Details: PANC-1, 48 h
MEASURED_PROPERTY: pIC50
Answers are plain numbers, as −log10 of the molar value.

Incoming: Tell me the measured pIC50 of CCOC(=O)C(C)C(=O)c1cnccn1 (stereo unspecified) , please.
Outgoing: 5.54

---

Provide the reported MIC of each item.
System: Staphylococcus aureus
Experiment: Antibacterial activity against Staphylococcus aureus ATCC 25923 after 24 hrs
Assay type: functional
Conditions: ATCC 25923, 24 h
Give bare numbers, in µg/mL.

Worked set:
CCOC(=O)CC(=O)c1ncccn1    6.25
CCOC(=O)CC(=O)c1cccc2sc(Br)nc12    6.25

Go through the list and state MIC for each entry.
1. CCOC(=O)CC(=O)c1cc2ccccc2cn1
2. CCOC(=O)CC(=O)c1nccc2ccccc12
3. CCOC(=O)CC(=O)c1cnc(Cl)cn1

Outgoing:
1: 12.5; 2: 6.25; 3: 6.25

Incoming: Tell me the measured MIC of O=C(O)c1cn(C2CC2)c2cc(N3CCNCC3)c(F)cc2c1=O , please.
Outgoing: 6.25
